Assay: Inhibition of Hsp90-dependent luciferase renaturation in rabbit reticulocyte after 30 mins by luciferase refolding assay
Set-up: species or system Oryctolagus cuniculus
value_kind: pIC50
Expect pIC50 as a plain number equal to -log10 of the molar concentration.

These recorded examples may help you get a feel for the data.
compound: O=C(CSc1nnnn1-c1ccc(F)cc1F)Nc1ccc2c(c1)OCCO2
pIC50: 5.36

compound: Oc1c(C(Nc2cccc(Cl)c2)c2ccncc2)ccc2cccnc12 (configuration not stated)
pIC50: 4.44

compound: COc1ccc(/C=C2/SC(=O)NC2=O)cc1OC
pIC50: 3.72

compound: Cc1nc(N)sc1-c1csc(Nc2ccccc2)n1
pIC50: 4.82

Now for a further compound.
**Query** Which value of pIC50 has been reported for COc1ccc(C(=O)/C=C(\C)Nc2ccccc2O)cc1 in the records?
**Result** 4.82
